Assay: 4-week monkey GLP toxicity study, twice-weekly IV dosing (toxicity and toxicokinetics)
Format: in vivo, monkeys
Settings: in vivo, intravenous; 4-week monkey GLP toxicity study, range over doses
Where a SMILES comes first, the peptide text is derived from it. Bridges are numbered along the chain shown (N, C = ends). [ ]: non-standard residue; d: D form. R8 = C=CCCCCCC[C@@](C)(N)C(=O)O; S5 = C=CCCC[C@](C)(N)C(=O)O
Measurement type: half-life

Entry under review: CC(=O)N[C@@H](CC(C)C)C(=O)N[C@H](C(=O)N[C@@H](Cc1ccccc1)C(=O)N[C@]1(C)CCCCCC/C=C/CCC[C@@](C)(C(=O)N[C@@H](C)C(=O)N[C@@H](C)C(=O)N[C@@H](C)C(=O)N[C@@H](C)C(=O)N[C@@H](C)C(=O)N[C@H](C)C(N)=O)NC(=O)[C@H](CC(C)C)NC(=O)[C@H](CCC(N)=O)NC(=O)[C@H](C)NC(=O)[C@H](Cc2c[nH]c3ccccc23)NC(=O)[C@H](Cc2ccc(O)cc2)NC(=O)[C@H](CCC(=O)O)NC1=O)[C@@H](C)O [peptide 1] (Ac-LTF[R8]EYWAQL[S5]AAAAA[dA]-NH2; staple (E) 4-11) . Reported half-life?
3.7 to 6 h
